Test System: T1, human RXFP1 receptor (human, UniProt Q9HBX9 1-757)
T1 sequence (looked up): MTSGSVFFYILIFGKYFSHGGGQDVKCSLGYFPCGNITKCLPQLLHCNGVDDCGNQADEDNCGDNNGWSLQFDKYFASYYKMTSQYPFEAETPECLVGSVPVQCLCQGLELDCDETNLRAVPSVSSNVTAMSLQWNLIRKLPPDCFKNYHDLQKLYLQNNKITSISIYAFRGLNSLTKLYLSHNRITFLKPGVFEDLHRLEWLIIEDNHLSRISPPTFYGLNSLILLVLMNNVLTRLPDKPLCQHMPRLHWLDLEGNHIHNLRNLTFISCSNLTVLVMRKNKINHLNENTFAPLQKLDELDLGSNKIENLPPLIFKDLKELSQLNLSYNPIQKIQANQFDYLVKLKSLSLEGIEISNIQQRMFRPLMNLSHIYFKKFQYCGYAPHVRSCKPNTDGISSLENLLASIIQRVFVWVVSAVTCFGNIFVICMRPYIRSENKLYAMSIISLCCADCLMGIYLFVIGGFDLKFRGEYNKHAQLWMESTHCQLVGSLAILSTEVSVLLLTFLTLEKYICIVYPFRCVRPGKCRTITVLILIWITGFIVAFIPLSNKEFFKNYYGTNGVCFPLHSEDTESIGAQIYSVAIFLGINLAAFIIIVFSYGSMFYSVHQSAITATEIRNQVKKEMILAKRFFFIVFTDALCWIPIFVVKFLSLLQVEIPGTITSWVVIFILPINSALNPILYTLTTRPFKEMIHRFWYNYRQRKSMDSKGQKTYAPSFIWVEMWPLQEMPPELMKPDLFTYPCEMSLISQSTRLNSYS
Protocol Summary: cell-based or functional assay
Would you mind telling me the reported hRXFP1/CHO-K1 cAMP EC50 (nM, avg) of each entry?
Give just the numeric value; nM need not be written.

Bench note: what hRXFP1/CHO-K1 cAMP EC50 (nM, avg) did AQ1-KK-Glu^γ-C13-COOH (ligand, not fully specified; Glu^γ bonded by amide to fatty acid -C13-COOH; oxime-linked to pAcF of the A chain; pAcF (para-acetyl-L-phenylalanine) at position 1, oxime-linked to PK enhancer …) chain 1: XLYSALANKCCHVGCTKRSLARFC chain 2: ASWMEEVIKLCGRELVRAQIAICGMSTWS peptide: KKE show?
0.1

Bench note: what hRXFP1/CHO-K1 cAMP EC50 (nM, avg) did AQ1-PEG36-Glu-C13-COOH (ligand, not fully specified; pAcF (para-acetyl-L-phenylalanine) at position 1, oxime-linked to PK enhancer PEG36-Glu-C13-COOH) chain 1: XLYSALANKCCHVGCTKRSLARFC chain 2: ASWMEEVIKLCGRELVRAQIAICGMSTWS show?
0.25

Bench note: what hRXFP1/CHO-K1 cAMP EC50 (nM, avg) did AQ1-EGGGGSK-Glu^γ-C13-COOH (ligand, not fully specified; Glu^γ bonded by amide to fatty acid -C13-COOH; oxime-linked to pAcF of the A chain; pAcF (para-acetyl-L-phenylalanine) at position 1, oxime-linked to PK enhancer EGGGGSK-Glu^γ-C13-COOH) chain 1: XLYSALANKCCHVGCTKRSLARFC chain 2: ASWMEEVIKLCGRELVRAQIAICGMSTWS peptide: EGGGGSKE show?
0.31
